assay: Plasma and lung epithelial lining fluid (ELF) pharmacokinetics in ICR mice; assay type: in vivo; details: ICR, mouse, plasma; 20 mg/kg IP; read-out: mean plasma AUC0-72
Numbered stars: 1 amine (or outer) side, 2 acyl side, 3 side chain; on linkers, the order of the positions; unused ones are H or OH. Bridge positions count the residues as written; N and C are the ends. Square brackets hold non-standard residues; d marks the D form. Peptide text beside a SMILES is read from it. * marks the point of attachment. ξ: configuration not given here. Orn(4R-OH,5R-OCH2CH2NMe3+) = C[N+](C)(C)CCO[C@@H](N[*:3])[C@H](O)C[C@H](N[*:1])C(=O)[*:2]; pTerphenylCO(4''-OnC5H11) = CCCCCOc1ccc(-c2ccc(-c3ccc(C(=O)*)cc3)cc2)cc1; hTyr(3S-OH,4S-OH) = N[C@H](C(=O)O)[C@H](O)[C@@H](O)c1ccc(O)cc1; X1 = C[C@H]1CN([*:1])C(C(=O)[*:2])C1O; Hyp = O=C(O)[C@@H]1C[C@@H](O)CN1; ξT = CC(O)C(N)C(=O)O
endpoint: AUC(0-t) (µg·h/mL)
Give your result in µg·h/mL as a bare value.

The value of AUC(0-t) measured for the compound CCCCCOc1ccc(-c2ccc(-c3ccc(C(=O)N[C@H]4C[C@@H](O)[C@@H](OCC[N+](C)(C)C)NC(=O)C5C(O)[C@@H](C)CN5C(=O)[C@H]([C@@H](C)O)NC(=O)[C@H]([C@H](O)[C@@H](O)c5ccc(O)cc5)NC(=O)[C@@H]5C[C@@H](O)CN5C(=O)C(C(C)O)NC4=O)cc3)cc2)cc1 (stereo partly drawn) [CD101] ({pTerphenylCO(4''-OnC5H11)}-[Orn(4R-OH,5R-OCH2CH2NMe3+)][ξT][Hyp][hTyr(3S-OH,4S-OH)]T[X1]; lactam 1-C) turned out to be 762

Cited source for all entries: patent US20240076347A1
